target: human MET, cell-surface expressed (human, UniProt P08581 25-1390); experiment: cell-based or functional assay
Sequence (P08581 25-1390): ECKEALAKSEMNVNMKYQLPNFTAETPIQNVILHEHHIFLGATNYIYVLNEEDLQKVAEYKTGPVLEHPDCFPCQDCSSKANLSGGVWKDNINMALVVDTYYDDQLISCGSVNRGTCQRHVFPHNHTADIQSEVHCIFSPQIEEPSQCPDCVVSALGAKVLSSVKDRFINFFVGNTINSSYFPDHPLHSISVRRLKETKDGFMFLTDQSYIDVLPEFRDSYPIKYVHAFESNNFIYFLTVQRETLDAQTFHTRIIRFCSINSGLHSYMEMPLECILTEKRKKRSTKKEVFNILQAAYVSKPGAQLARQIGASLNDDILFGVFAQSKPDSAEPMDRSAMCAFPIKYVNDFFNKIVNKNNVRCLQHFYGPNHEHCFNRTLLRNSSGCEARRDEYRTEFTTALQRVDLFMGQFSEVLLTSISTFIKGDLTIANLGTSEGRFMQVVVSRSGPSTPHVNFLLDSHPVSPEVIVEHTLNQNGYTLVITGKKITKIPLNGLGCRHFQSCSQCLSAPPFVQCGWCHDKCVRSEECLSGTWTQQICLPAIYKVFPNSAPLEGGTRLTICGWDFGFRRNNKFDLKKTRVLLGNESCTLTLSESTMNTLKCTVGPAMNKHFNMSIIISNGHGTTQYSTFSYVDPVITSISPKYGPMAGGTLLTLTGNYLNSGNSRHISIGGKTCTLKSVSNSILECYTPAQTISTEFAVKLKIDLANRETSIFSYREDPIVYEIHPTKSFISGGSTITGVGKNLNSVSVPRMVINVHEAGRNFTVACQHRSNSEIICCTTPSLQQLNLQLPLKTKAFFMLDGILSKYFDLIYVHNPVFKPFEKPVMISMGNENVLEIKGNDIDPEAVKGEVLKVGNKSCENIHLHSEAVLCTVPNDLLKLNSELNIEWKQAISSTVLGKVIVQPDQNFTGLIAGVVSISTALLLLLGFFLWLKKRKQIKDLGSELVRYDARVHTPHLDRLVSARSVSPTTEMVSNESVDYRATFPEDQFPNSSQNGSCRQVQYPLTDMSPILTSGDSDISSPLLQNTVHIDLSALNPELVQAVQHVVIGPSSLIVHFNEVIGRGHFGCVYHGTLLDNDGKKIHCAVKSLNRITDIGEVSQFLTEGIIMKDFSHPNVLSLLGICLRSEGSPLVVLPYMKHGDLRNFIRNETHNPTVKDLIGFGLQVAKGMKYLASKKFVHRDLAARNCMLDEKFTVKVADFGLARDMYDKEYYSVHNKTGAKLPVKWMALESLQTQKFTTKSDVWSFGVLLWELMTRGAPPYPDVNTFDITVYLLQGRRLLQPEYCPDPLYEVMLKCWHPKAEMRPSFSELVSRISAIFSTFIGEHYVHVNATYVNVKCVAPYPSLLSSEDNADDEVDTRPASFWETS
Measurement label: maximal percent induction of MET degradation in SNU-5 cells (%)
Give your result in % as a bare value.

Binder | Reported result
Ab237C-IgG2 (antibody, V domains shown) VH: EVQLVESGGGLVQPGRSLKLSCAASGFTFSDSYMAWVRQAPTKGLEWVASISSDGGGTYYRDSVKGRFSISRDNAKSSLYLQMDSLRSEDTATYYCTTEGIYTTDYYPYCFNYWGHGVMVTVSA VL: DIQMTQSPGSLSASLGETVTIECLASADIHSNLAWYQQKPGNSPQLLIYYGNNLNDGVPSRFSGSGSGTQYSLKINSLQSEDVSIYFCQQSYDSPPTFGAGTKLEIKR | 81

Now consider a different binder.
What value of measured maximal percent induction of MET degradation in SNU-5 cells is listed for Ab235C (antibody, human IgG1, V domains shown) VH: QVQLQQSGAELMKPGASVKISCKATGYTFSNYWIEWVKQRPGHGLEWIGEILPGSDYTKYNEKFKGKATFTADTSSNTAYMQLSSLTSEDSAVYYCARPSTIPPDCWGQGTTLTVSA VL: QIVLTQSPAIMSTSPGEKVTMTCSASSSVNYMFWYQQKAGSSPRLLIYDTFNLASGVPVRFSGSGSGTSYSLTISRMEAEDAATYYCQQWSIYPYTFGGGTKLEIKR ?
6
